Taken from paper PMC11070930.

targetDesc: PARP1 WT (UniProt P09874 1-1014)
Sequence (P09874 whole entry): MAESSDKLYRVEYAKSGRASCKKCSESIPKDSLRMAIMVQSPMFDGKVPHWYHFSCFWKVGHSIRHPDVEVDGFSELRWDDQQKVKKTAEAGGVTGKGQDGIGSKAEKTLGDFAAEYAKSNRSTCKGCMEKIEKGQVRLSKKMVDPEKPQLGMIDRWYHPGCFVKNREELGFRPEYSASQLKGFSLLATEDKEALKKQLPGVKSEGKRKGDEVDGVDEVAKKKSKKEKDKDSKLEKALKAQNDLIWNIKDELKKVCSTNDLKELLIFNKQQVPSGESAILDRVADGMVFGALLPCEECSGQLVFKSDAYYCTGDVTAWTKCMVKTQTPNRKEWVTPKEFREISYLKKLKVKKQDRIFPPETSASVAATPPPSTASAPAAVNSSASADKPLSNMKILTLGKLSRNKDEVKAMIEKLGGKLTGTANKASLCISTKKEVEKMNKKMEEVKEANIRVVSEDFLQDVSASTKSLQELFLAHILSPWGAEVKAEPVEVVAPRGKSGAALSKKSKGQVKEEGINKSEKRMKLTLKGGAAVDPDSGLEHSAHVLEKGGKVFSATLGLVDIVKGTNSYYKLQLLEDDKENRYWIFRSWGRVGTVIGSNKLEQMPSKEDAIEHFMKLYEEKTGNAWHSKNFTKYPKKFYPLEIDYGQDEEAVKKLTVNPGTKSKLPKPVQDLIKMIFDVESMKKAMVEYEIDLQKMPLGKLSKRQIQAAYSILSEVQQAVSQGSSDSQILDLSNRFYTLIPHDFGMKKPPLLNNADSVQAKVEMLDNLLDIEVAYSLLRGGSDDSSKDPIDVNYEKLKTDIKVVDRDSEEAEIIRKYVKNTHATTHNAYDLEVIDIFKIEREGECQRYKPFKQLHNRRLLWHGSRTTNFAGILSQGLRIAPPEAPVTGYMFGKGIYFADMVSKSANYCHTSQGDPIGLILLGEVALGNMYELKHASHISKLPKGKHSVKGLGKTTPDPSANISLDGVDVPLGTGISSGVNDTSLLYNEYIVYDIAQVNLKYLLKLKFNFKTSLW
experimentSummary: fluorescence polarization
measureName: Kd (nM)
Only the number, expressed in nM, is required.

[Q] Need Kd of 18-bp DNA duplex (dsDNA) DNA 1: GGGTTGCGGCCGCTTGGG DNA 2: CCCAAGCGGCCGCAACCC , thanks.
[A] 41.7
